# targetSystem: IRAK4 (Homo sapiens, UniProt Q9NWZ3)
# Construct: His-TEV-IRAK4 (1-460); His (N); TEV cleavage site (N)
# Sequence (Q9NWZ3 whole entry): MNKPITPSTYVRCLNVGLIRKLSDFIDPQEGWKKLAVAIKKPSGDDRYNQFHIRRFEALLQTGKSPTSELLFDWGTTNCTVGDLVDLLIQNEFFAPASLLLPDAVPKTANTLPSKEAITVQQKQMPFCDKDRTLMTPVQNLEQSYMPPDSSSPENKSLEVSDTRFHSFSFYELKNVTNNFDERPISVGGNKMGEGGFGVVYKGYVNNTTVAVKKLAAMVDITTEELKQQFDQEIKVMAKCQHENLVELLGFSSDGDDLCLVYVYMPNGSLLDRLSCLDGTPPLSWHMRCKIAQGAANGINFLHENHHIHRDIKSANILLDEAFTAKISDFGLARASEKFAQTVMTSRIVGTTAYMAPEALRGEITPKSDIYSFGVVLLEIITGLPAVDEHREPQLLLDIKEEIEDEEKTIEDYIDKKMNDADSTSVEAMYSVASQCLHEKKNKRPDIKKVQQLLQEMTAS
# methodSummary: IRAK4 enzymatic assay (ADP-Glo luminescence)
# conditionSet: purified human recombinant His-TEV-IRAK4 (1-460), ATP 2 μM
Counter-ions that a name gives are not always drawn.
endpointLabel: IC50

{"compound": "O=C1C[C@H](n2/c(=N/C(=O)c3cccc(C(F)(F)F)c3)[nH]c3cc(N4CCCOC4=O)ccc32)CN1 [Compound 154]", "readoutValue": "100 to 1000 nM"}
{"compound": "O=C(/N=c1\\[nH]c2cc(N3CCCOC3=O)ccc2n1CCCO)c1cccc(C(F)(F)F)c1 [Compound 33]", "readoutValue": "≤ 100 nM"}
{"compound": "CC(=O)NCc1cccc(C(=O)/N=c2\\[nH]c3cc(N4CCOCC4=O)ccc3n2CCCO)c1 [Compound 47]", "readoutValue": "100 to 1000 nM"}
{"compound": "CC(=O)c1cccc(C(=O)/N=c2\\[nH]c3cc(N4CCOCC4=O)ccc3n2CCCO)c1 [Example 231]", "readoutValue": "≤ 100 nM"}
{"compound": "CN1CCN(c2ccc3c(c2)[nH]/c(=N\\C(=O)c2cccc(C(F)F)c2)n3CCCO)C(=O)C1 [Compound 111]", "readoutValue": "≤ 100 nM"}
{"compound": "CS(=O)(=O)c1cccc(C(=O)/N=c2\\[nH]c3cc(N4CCOCC4=O)ccc3n2CC2(CO)CC2)c1 [Compound 13]", "readoutValue": "≤ 100 nM"}
{"compound": "CC(C)N1CCN(c2ccc3c(c2)[nH]/c(=N\\C(=O)c2cccc(C(F)F)c2)n3CCCO)C(=O)C1 [Compound 185]", "readoutValue": "≤ 100 nM"}
{"compound": "Cn1ncn(-c2ccc3c(c2)[nH]/c(=N\\C(=O)c2cccc(C(F)(F)F)c2)n3CCCO)c1=O [Compound 189]", "readoutValue": "≤ 100 nM"}
{"compound": "O=C(/N=c1\\[nH]c2cc(N3CCOCC3=O)ccc2n1CCCO)c1ccccc1 [Compound 30]", "readoutValue": "100 to 1000 nM"}
{"compound": "Cn1cnc2ccc(C(=O)/N=c3\\[nH]c4cc(N5CCOCC5=O)ccc4n3CCCO)cc21 [Compound 20]", "readoutValue": "100 to 1000 nM"}
{"compound": "CC1(C)NCCN(c2ccc3c(c2)[nH]/c(=N\\C(=O)c2cccc(C(F)(F)F)c2)n3CCCO)C1=O [Compound 191, hydrochloride]", "readoutValue": "≤ 100 nM"}
{"compound": "O=C(/N=c1\\[nH]c2cc(N3CCOCC3=O)ccc2n1C1CCS(=O)(=O)CC1)c1cccc(C(F)(F)F)c1 [Compound 136]", "readoutValue": "≤ 100 nM"}
{"compound": "Cc1cc2c(cc1N1CCOCC1=O)[nH]/c(=N\\C(=O)c1cccc(C(F)(F)F)c1)n2CCCO [Compound 70]", "readoutValue": "≤ 100 nM"}
{"compound": "COc1cc2c(cc1N1CCOCC1=O)[nH]/c(=N\\C(=O)c1cccc(CO)c1)n2CCCO [Compound 64]", "readoutValue": "≤ 100 nM"}
{"compound": "O=C(/N=c1\\[nH]c2cc(N3CCOCC3=O)ccc2n1CCCO)c1cnccn1 [Compound 72]", "readoutValue": "> 1000 nM"}
{"compound": "O=C(/N=c1\\[nH]c2cc(N3CCOCC3=O)ccc2n1[C@H]1CC[C@@H](CO)CC1)c1cccc(C(F)F)c1 [Compound 123]", "readoutValue": "≤ 100 nM"}
{"compound": "CC(C)Oc1cc2c(cc1N1CCOCC1=O)[nH]/c(=N\\C(=O)c1cccc(C(F)F)c1)n2CCCO [Compound 137]", "readoutValue": "≤ 100 nM"}
{"compound": "CS(=O)(=O)c1cccc(C(=O)/N=c2\\[nH]c3cc(N4CCOCC4=O)ccc3n2CCCO)c1 [Compound 82]", "readoutValue": "≤ 100 nM"}
{"compound": "COc1cc2c(cc1N1CCOCC1=O)[nH]/c(=N\\C(=O)c1cccc(C(F)(F)F)c1)n2CCCO [Compound 76]", "readoutValue": "≤ 100 nM"}
{"compound": "Cn1ccc(-c2cccc(C(=O)/N=c3\\[nH]c4cc(N5CCOCC5=O)ccc4n3CCCO)c2)cc1=O [Compound 153]", "readoutValue": "≤ 100 nM"}
{"compound": "O=C(/N=c1\\[nH]c2cc(N3CCOCC3=O)ccc2n1CCCO)c1cccc(-c2cc[nH]c(=O)c2)c1 [Compound 107]", "readoutValue": "≤ 100 nM"}
{"compound": "O=C(/N=c1\\[nH]c2cc(N3CCCOC3=O)ccc2n1CC1CCOCC1)c1cccc(C(F)(F)F)c1 [Compound 155]", "readoutValue": "≤ 100 nM"}
{"compound": "O=C(O)Cn1/c(=N/C(=O)c2cccc(C(F)(F)F)c2)[nH]c2cc(N3CCOCC3=O)ccc21 [Compound 167]", "readoutValue": "> 1000 nM"}
{"compound": "Cn1nc(C(=O)/N=c2\\[nH]c3cc(N4CCOCC4=O)ccc3n2CCCO)c2ccccc21 [Compound 60]", "readoutValue": "> 1000 nM"}
{"compound": "O=C(/N=c1\\[nH]c2cc(N3CCCOC3=O)ccc2n1CC1CCCOC1)c1cccc(C(F)(F)F)c1 (stereo not drawn) [Compound 180]", "readoutValue": "≤ 100 nM"}
{"compound": "O=C(/N=c1\\[nH]c2cc(N3CCOCC3=O)ccc2n1C1CCCCC1)c1cccc(C(F)(F)F)c1 [Compound 45]", "readoutValue": "100 to 1000 nM"}
{"compound": "O=C(/N=c1\\[nH]c2cc(N3CCOCC3=O)ccc2n1[C@H]1CC[C@@H](CO)CC1)c1cccc(C(F)(F)F)c1 [Compound 122]", "readoutValue": "≤ 100 nM"}
{"compound": "O=C(/C=C1\\Nc2cc(N3CCOCC3=O)ccc2N1CCCO)c1ccc2ccccc2n1 [Compound 149]", "readoutValue": "> 1000 nM"}
{"compound": "N#Cc1cccc(C(=O)/N=c2\\[nH]c3cc(N4CCOCC4=O)ccc3n2CCCO)c1 [Compound 3]", "readoutValue": "≤ 100 nM"}
{"compound": "O=C(/N=c1\\[nH]c2cc(N3C(=O)COCC34CC4)ccc2n1CCCO)c1cccc(C(F)(F)F)c1 [Example 189]", "readoutValue": "≤ 100 nM"}

====

Documented pIC50 across a set of compounds
# targetSystem: IRAK1 (Homo sapiens, UniProt P51617)
# Construct: His-TEV-IRAK1 (194-712); His (N); TEV cleavage site (N)
# Sequence (P51617 194-712): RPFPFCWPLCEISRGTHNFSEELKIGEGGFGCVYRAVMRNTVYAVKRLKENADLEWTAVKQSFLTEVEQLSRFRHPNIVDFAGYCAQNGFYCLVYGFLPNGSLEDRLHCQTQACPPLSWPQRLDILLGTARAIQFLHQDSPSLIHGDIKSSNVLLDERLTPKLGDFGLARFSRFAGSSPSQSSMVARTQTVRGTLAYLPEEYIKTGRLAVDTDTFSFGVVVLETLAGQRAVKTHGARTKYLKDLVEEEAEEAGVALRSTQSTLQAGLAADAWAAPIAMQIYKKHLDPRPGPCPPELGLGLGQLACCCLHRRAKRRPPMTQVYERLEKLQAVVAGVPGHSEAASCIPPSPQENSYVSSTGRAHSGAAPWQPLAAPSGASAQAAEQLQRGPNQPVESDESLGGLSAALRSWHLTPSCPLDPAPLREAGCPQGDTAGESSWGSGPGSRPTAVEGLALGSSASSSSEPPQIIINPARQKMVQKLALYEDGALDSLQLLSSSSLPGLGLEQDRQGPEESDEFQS
# methodSummary: IRAK1 enzymatic assay (ADP-Glo luminescence)
# conditionSet: purified human recombinant His-TEV-IRAK1 (194-712)
pIC50: −log10 of the molar value.

{"compound": "O=C(/N=c1\\[nH]c2cc(N3CCCOC3=O)ccc2n1CC(F)(F)C(F)(F)F)c1cccc(C(F)(F)F)c1 [Compound 177]", "pIC50": "< 6.00"}
{"compound": "O=C(/N=c1\\[nH]c2cc(N3CC4CC(N4)C3=O)ccc2n1CCCO)c1cccc(C(F)F)c1 (stereo not shown) [Example 213]", "pIC50": "6.00 to 7.00"}
{"compound": "[2H]C([2H])([2H])Oc1cc2c(cc1N1CCOCC1=O)[nH]/c(=N\\C(=O)c1cccc(C(F)(F)F)c1)n2CCCO [Example 202]", "pIC50": "≥ 7.00"}
{"compound": "O=C(O)Cn1/c(=N/C(=O)c2cccc(C(F)(F)F)c2)[nH]c2cc(N3CCOCC3=O)ccc21 [Compound 167]", "pIC50": "< 6.00"}

====

# targetSystem: IRAK4 (Homo sapiens, UniProt Q9NWZ3)
# Construct: His-TEV-IRAK4 (1-460); His (N); TEV cleavage site (N)
# methodSummary: IRAK4 enzymatic assay (ADP-Glo luminescence)
# conditionSet: purified human recombinant His-TEV-IRAK4 (1-460), ATP 2 μM
pIC50: −log10 of the molar value.
endpointLabel: pIC50

{"compound": "O=C(/N=c1\\[nH]c2cc(N3CCOCC3=O)ccc2n1CCCO)c1cncc(C(F)(F)F)c1 [Compound 85]", "readoutValue": "≥ 7.00"}
{"compound": "O=C(/N=c1\\[nH]c2cc(N3CCOCC3=O)cc(F)c2n1CCCO)c1cccc(C(F)(F)F)c1 [Example 210]", "readoutValue": "≥ 7.00"}
{"compound": "CC1(C)CN(c2ccc3c(c2)[nH]/c(=N\\C(=O)c2cccc(C(F)F)c2)n3CCCO)C(=O)O1 [Example 200]", "readoutValue": "≥ 7.00"}
{"compound": "CC1(C)OCCN(c2ccc3c(c2)[nH]/c(=N\\C(=O)c2cccc(C(F)F)c2)n3CCCO)C1=O [Example 222]", "readoutValue": "≥ 7.00"}
{"compound": "O=C(/N=c1\\[nH]c2cc(N3CCOCC3=O)ccc2n1CCCO)c1cccc(OC(F)F)c1 [Compound 6]", "readoutValue": "≥ 7.00"}
{"compound": "O=C(/N=c1\\[nH]c2cc(N3CC4CCC(C3=O)N4C3CC3)ccc2n1CCCO)c1cccc(C(F)(F)F)c1 (centres unmarked) [Example 215]", "readoutValue": "≥ 7.00"}
{"compound": "O=C(/N=c1\\[nH]c2cc(N3CCCOC3=O)ccc2n1C1CC1)c1cccc(C(F)(F)F)c1 [Compound 172]", "readoutValue": "≥ 7.00"}
{"compound": "Cc1cccc(C(=O)/N=c2\\[nH]c3cc(N4CCOCC4=O)ccc3n2CCCO)c1 [Compound 105]", "readoutValue": "≥ 7.00"}
